# Measured on: T1, full-length ETR1, recombinant, purified and fluorescently labeled (Arabidopsis, UniProt P49333 1-738, fluorescent label (dye and site not stated))
# T1 chain: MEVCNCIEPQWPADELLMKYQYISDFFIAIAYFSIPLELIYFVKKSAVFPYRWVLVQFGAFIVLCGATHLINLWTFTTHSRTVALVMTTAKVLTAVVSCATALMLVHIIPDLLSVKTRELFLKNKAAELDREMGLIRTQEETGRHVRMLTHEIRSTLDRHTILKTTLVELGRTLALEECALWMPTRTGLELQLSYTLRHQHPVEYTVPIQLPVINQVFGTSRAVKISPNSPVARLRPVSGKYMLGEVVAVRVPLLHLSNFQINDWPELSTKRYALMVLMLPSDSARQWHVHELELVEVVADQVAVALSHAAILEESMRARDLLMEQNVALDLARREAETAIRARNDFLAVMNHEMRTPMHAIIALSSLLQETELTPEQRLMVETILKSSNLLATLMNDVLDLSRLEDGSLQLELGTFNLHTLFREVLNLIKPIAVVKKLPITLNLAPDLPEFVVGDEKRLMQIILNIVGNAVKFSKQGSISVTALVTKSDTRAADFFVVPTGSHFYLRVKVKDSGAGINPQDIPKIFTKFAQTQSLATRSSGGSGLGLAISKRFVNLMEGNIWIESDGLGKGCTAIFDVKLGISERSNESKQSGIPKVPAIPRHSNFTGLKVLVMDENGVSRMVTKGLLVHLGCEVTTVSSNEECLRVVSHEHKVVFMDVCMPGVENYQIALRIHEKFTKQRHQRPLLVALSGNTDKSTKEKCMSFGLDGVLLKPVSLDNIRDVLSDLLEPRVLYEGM
# Protocol: MST
Assay metric: Kd (µM)

{"Binder": "MKPRLCFNFRRRSISPCYISISYLLVAKLFKLFKIH [synthetic full-length POLARIS (PLS) peptide, PLS(FL)]", "Unit of measure": "µM", "Obs value": 1.9}

Cited source: paper PMC12744750
